Overview of recorded IC50 for various compounds
- Experimental System: Metabotropic glutamate receptor 5 (Homo sapiens)
- Sequence (P41594 whole entry): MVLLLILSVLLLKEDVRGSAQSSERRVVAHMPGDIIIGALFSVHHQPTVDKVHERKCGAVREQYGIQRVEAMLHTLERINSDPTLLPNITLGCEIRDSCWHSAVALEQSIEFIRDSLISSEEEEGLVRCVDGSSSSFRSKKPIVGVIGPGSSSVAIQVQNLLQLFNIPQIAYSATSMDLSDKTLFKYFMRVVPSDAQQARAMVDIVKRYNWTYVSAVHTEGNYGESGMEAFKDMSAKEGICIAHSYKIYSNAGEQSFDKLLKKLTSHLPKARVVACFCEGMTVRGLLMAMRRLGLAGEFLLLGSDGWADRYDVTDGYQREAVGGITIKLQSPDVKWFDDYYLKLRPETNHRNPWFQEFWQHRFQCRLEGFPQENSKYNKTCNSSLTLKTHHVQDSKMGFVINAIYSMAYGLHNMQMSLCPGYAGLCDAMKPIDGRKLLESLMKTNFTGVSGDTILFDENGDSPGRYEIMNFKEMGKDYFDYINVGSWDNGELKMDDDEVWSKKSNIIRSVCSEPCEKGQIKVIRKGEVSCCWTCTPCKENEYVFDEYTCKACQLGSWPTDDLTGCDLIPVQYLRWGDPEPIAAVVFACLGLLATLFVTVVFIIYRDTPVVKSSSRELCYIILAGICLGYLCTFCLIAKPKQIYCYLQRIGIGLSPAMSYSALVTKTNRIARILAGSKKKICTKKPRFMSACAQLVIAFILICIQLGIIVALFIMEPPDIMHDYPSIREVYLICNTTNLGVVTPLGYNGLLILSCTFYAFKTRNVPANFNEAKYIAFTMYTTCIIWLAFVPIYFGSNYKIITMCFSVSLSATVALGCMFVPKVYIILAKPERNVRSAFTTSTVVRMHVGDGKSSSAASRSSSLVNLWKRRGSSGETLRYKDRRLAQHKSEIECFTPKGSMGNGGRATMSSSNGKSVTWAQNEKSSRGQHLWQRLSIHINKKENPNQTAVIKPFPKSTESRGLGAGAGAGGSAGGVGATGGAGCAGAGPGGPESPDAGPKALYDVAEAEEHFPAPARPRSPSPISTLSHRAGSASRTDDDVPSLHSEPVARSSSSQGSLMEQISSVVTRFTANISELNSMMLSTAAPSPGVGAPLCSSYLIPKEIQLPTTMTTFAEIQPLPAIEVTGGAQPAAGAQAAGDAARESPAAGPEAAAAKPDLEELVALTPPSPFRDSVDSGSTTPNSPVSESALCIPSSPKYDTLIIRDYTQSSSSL
- Assay Overview: Antagonist activity at mGluR5 by FLIPR
- Type: functional

# annotated cases, reported IC50 shown
Structure String | Observed Property | Reading
CN1CC(=O)N/C1=N\C(=O)Nc1ccncc1 | IC50 | > 5 µM
Cc1cccc(C#Cc2cccc(Cl)c2)n1 | IC50 | 0.007 µM
CN1CC(=O)N/C1=N\C(=O)Nc1cccnc1 | IC50 | > 5 µM

--- query ---
Consider `CN1CC(=O)N/C1=N\C(=O)Nc1ccc(Cl)cc1` . Its measured IC50 is > 5 µM
